# assay_system: UniProtKB Q07820
# Sequence (Q07820 whole entry): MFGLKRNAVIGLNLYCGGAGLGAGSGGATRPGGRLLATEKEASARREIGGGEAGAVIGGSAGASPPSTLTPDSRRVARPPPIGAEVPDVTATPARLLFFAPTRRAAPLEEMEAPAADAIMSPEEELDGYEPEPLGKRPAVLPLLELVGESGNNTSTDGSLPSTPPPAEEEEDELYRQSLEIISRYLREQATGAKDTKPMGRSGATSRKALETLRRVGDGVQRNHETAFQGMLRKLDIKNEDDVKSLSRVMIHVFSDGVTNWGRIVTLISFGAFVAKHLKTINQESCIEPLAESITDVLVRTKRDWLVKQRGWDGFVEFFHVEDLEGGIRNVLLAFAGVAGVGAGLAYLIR
property_name: Ki (nM)

molecule="COCCOCCn1c(C(=O)O)c2c3ccc(Cl)c(c31)-c1c(C)c(C)nn1CCCc1cc(n(C)n1)CCc1cc(c3ccc(F)cc3c1)OCCC2 (single isomer, unassigned) [Compound 6]" experimental_result=1.93
molecule="CCn1c(C(=O)O)c2c3ccc(Cl)c(c31)-c1c(C)c(C)nn1CCCc1cc(n(CCN(C)C)n1)CCc1cc(c3ccc(F)cc3c1)OCCC2 (single isomer, unassigned) [Compound 7]" experimental_result=0.052
molecule="CCn1c(C(=O)O)c2c3ccc(Cl)c(c31)-c1c(C)c(C)nn1CCCc1cc(n(CCOC)n1)CCc1cc(c3ccc(F)cc3c1)OCCC2 (single isomer, unassigned) [Compound 10]" experimental_result=3.06

* * *

# Tested on: MOLP-8 human multiple myeloma cell line
# test: Caspase-Glo 3/7 assay in MOLP-8 cells (apoptosis induction)
# Type: cell-based
# measurement_setup: MOLP8 cells, 2 hours incubation at 37° C.; averaged values over all runs on all batches
The following compounds are listed with their measured log10 of AC50 values.
property_name: log10 of AC50 (log10 of the value in nM)

compound="Cc1nn2c(c1C)-c1c(Cl)ccc3c(c(C(=O)O)n(C)c13)CCCOc1cc(cc3ccccc13)SCc1cc(nn1C)CCC2 (single isomer, unassigned) [Compound 1]" assay_system="MOLP-8 human multiple myeloma cell line" experimental_result=1.83
compound="CCn1c(C(=O)O)c2c3ccc(Cl)c(c31)-c1c(C)c(C)nn1CCCc1cc(n(C)n1)CCc1cc(c3ccc(F)cc3c1)OCCC2 (single isomer, unassigned) [Compound 3]" assay_system="MOLP-8 human multiple myeloma cell line" experimental_result=1.56
compound="CCn1c(C(=O)O)c2c3ccc(Cl)c(c31)-c1c(C)c(C)nn1CCCc1cc(n(C)n1)CCc1cc(c3ccc(F)cc3c1)OCCC2 (single isomer, unassigned) [Compound 4]" assay_system="MOLP-8 human multiple myeloma cell line" experimental_result=4.12
compound="CCn1c(C(=O)O)c2c3ccc(Cl)c(c31)-c1c(C)c(C)nn1CCCc1cc(n(CCOC)n1)CCc1cc(c3ccc(F)cc3c1)OCCC2 (single isomer, unassigned) [Compound 10]" assay_system="MOLP-8 human multiple myeloma cell line" experimental_result=3.49
compound="CCn1c(C(=O)O)c2c3ccc(Cl)c(c31)-c1c(C)c(C)nn1CCCc1cc(n(CCN(C)C)n1)CCc1cc(c3ccc(F)cc3c1)OCCC2 (single isomer, unassigned) [Compound 7]" assay_system="MOLP-8 human multiple myeloma cell line" experimental_result=1.20
compound="Cc1nn2c(c1C)-c1c(Cl)ccc3c(c(C(=O)O)n(C)c13)CCCOc1cc(cc3ccccc13)SCc1cc(nn1C)CCC2 (single isomer, unassigned) [Compound 2]" assay_system="MOLP-8 human multiple myeloma cell line" experimental_result=3.43
compound="COCCOCCn1c(C(=O)O)c2c3ccc(Cl)c(c31)-c1c(C)c(C)nn1CCCc1cc(n(C)n1)CCc1cc(c3ccc(F)cc3c1)OCCC2 (single isomer, unassigned) [Compound 6]" assay_system="MOLP-8 human multiple myeloma cell line" experimental_result=3.29
compound="CCn1c(C(=O)O)c2c3ccc(Cl)c(c31)-c1c(C)c(C)nn1CCCc1cc(n(CCOC)n1)CCc1cc(c3ccc(F)cc3c1)OCCC2 (single isomer, unassigned) [Compound 9]" assay_system="MOLP-8 human multiple myeloma cell line" experimental_result=1.72
compound="COCCOCCn1c(C(=O)O)c2c3ccc(Cl)c(c31)-c1c(C)c(C)nn1CCCc1cc(n(C)n1)CCc1cc(c3ccc(F)cc3c1)OCCC2 (single isomer, unassigned) [Compound 5]" assay_system="MOLP-8 human multiple myeloma cell line" experimental_result=1.43
compound="CCn1c(C(=O)O)c2c3ccc(Cl)c(c31)-c1c(C)c(C)nn1CCCc1cc(n(CCN(C)C)n1)CCc1cc(c3ccc(F)cc3c1)OCCC2 (single isomer, unassigned) [Compound 8]" assay_system="MOLP-8 human multiple myeloma cell line" experimental_result=3.19

Values from patent US20230234969A1
